test-protocol: Tumor growth, MCF-7 non-metastatic breast cancer model in athymic nude mice
Type: in vivo, mouse
conditions-used: before treatment
Procedure: The polypeptides of the invention were also tested for their effect on tumor growth in a mouse model of non-metastatic breast cancer. MCF-7 human non-metastatic breast cancer cells were cultured at 37° C., 5% CO2 in normal growth media. Cells were harvested at 80% to 90% confluence. […] Animals were designated vehicle and peptide treated. […] Animal weights and tumor volumes were measured 3 times weekly and the fluorescence labeling was followed by VIVO Tracker 680 and IVIS Imaging.
No end group written: not given here.
assay-metric: Body Weight Before (g)
The answer is to be given in g; state only the numeric part.

Problem: Fill in: Body Weight Before of FAKKFAKKF [RP-397, FAKKFAKKF] is ___
Solution: 25.1

Just for reference, patent US9492499B2 is where these values come from.
